This collection of values is drawn from paper PMC10397247.

TARGET_ENTITY: T1, 4H_APH
T1 chain: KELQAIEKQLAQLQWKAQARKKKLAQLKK
TEST_METHOD_NOTES: two-hybrid library CCmax;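 further: natural log of median RNA to DNA barcode read ratio; higher means stronger binding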
EXPERIMENTAL_CONTEXT: mean of both orientations
ENDPOINT_NAME: interaction score

DENAALEAKIAALKAKIAALKAKNAALKG [4H1392-AA]
-1.59
DENAALEAENAALKAKIAALKAEIAALEG [4H1257-AA]
-1.94

(I) DKIAALKAENAALEAKNAALKAKIAALKG [4H2750-AA]
(II) DEIAALEAKIAALKAKNAALKAKNAALKG [4H384-AA]
# return whichever of I and II has the smaller interaction score State your choice using its label. I
(I: -2.38, II: -1.66)
